Ref: the supplement of paper PMC6757056

// reported normalized RNA/DNA level without ligand (log10) per item
B1: library; a variant is named by its letters at N, in order (parent)
chain: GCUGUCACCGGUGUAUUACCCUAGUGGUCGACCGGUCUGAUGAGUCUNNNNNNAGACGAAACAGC

Variants of: B1
Assay: normalized RNA/DNA level without ligand (relative to sTRSVctl = 100) (log10 (% of sTRSVctl)); ligand: hypoxanthine (xanthine aptamer); higher = less ribozyme self-cleavage, higher mRNA level
Settings: HEK293T, reporter: mCherry (pCS4076), ligand present: no
Write the number on its own, no unit after it.

// worked examples, normalized RNA/DNA level without ligand (log10) included
> print(dat)
                         construct.sequence  recorded.number
1  GCUGUCACCGGUGUAUUACCCUAGUGGUCGACCGGUCUGAUGAGUCUUGGGCAAGACGAAACAGC             1.84
2  GCUGUCACCGGUGUAUUACCCUAGUGGUCGACCGGUCUGAUGAGUCUUCAAGGAGACGAAACAGC             1.79
3  GCUGUCACCGGUGUAUUACCCUAGUGGUCGACCGGUCUGAUGAGUCUUGUAAGAGACGAAACAGC             1.67
4  GCUGUCACCGGUGUAUUACCCUAGUGGUCGACCGGUCUGAUGAGUCUCAUGCAAGACGAAACAGC             1.69
5  GCUGUCACCGGUGUAUUACCCUAGUGGUCGACCGGUCUGAUGAGUCUAGGUAGAGACGAAACAGC              1.3

Ask: Please look up its normalized RNA/DNA level without ligand (log10): `GCUGUCACCGGUGUAUUACCCUAGUGGUCGACCGGUCUGAUGAGUCUUUCGGGAGACGAAACAGC`
Reply: 1.73

Ask: And `GCUGUCACCGGUGUAUUACCCUAGUGGUCGACCGGUCUGAUGAGUCUAGGCAAAGACGAAACAGC` ?
Reply: 1.74

Ask: And `GCUGUCACCGGUGUAUUACCCUAGUGGUCGACCGGUCUGAUGAGUCUUCACCGAGACGAAACAGC` ?
Reply: 1.7

Ask: And `GCUGUCACCGGUGUAUUACCCUAGUGGUCGACCGGUCUGAUGAGUCUCGUAUCAGACGAAACAGC` ?
Reply: 1.9

Ask: And `GCUGUCACCGGUGUAUUACCCUAGUGGUCGACCGGUCUGAUGAGUCUAUGGAAAGACGAAACAGC` ?
Reply: 1.65

Ask: And `GCUGUCACCGGUGUAUUACCCUAGUGGUCGACCGGUCUGAUGAGUCUCCGGUGAGACGAAACAGC` ?
Reply: 1.45

Ask: And `GCUGUCACCGGUGUAUUACCCUAGUGGUCGACCGGUCUGAUGAGUCUAGAUCAAGACGAAACAGC` ?
Reply: 1.81

Ask: And `GCUGUCACCGGUGUAUUACCCUAGUGGUCGACCGGUCUGAUGAGUCUUAUCUAAGACGAAACAGC` ?
Reply: 1.89
